- target: K-Ras G12C(GMP-PNP) binding to BRAF RBD (Homo sapiens (Human), UniProt P01116+P62937, G12C)
- Sequence (P01116 other isoform, or with tags, fused parts or gaps G12C): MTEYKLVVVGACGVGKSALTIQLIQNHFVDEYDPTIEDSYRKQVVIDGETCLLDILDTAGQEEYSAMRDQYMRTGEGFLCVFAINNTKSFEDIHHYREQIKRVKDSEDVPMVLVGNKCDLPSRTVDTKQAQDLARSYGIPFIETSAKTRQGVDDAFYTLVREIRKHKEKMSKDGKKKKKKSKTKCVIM
- Sequence (P62937 whole entry): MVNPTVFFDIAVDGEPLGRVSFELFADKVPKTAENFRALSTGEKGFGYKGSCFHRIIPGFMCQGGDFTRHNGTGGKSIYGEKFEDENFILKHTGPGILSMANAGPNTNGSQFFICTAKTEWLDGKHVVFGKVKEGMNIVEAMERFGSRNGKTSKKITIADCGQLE
- assay_text: Disruption of BRAF RBD interaction with K-Ras (FRET / MOA assay), K-Ras G12C
- Type: biochemical
- experimental_context: read-out: KRAS G12C FRET IC50
- Description: Note—The following protocol describes a procedure for monitoring disruption of K-Ras G12C(GMP-PNP) binding to BRAF^RBD by a compound of the invention. This protocol may also be executed substituting other Ras proteins or nucleotides. […]
pIC50: −log10 of the molar value.
pIC50 values, listed per item

CCn1c(-c2cccnc2[C@H](C)OC)c2c3cc(ccc31)-c1cc(O)cc(c1)C[C@H](NC(=O)[C@H](C(C)C)N(C)C(=O)C1(N)CC1)C(=O)N1CCC[C@H](N1)C(=O)OCC(C)(C)C2 [Compound A168] : 6.00 to 7.00

Give the measured pIC50 of CCn1c(-c2cccnc2[C@H](C)OC)c2c3cc(ccc31)-c1cc(O)cc(c1)C[C@H](NC(=O)C(C1CC1)C1CC1)C(=O)N1CCC[C@H](N1)C(=O)OCC(C)(C)C2 [Compound A184] .
> 8.00

Next compound: CCn1c(-c2cccnc2[C@H](C)OC)c2c3cc(ccc31)-c1cc(O)cc(c1)C[C@H](NC(=O)[C@H](C(C)C)N(C)C(=O)[C@H]1CCN(C(C)=O)C1)C(=O)N1CCC[C@H](N1)C(=O)NCC(C)(C)C2 [Compound A431]
6.00 to 7.00

Next compound: CCn1c(-c2cnccc2COC)c2c3cc(ccc31)-c1cc(O)cc(c1)C[C@H](NC(=O)[C@H](C(C)C)N(C)C(=O)N1CCNCC1)C(=O)N1CCC[C@H](N1)C(=O)OCC(C)(C)C2 [Compound A255]
> 8.00

Next compound: C/C=C/S(=O)(=O)N1CC[C@H](C(=O)N(C)[C@H](C(=O)N[C@H]2Cc3cc(O)cc(c3)-c3ccc4c(c3)c(c(-c3ccncc3[C@H](C)OC)n4CC)CC(C)(C)COC(=O)[C@@H]3CCCN(N3)C2=O)C(C)C)C1 [Compound A280]
7.00 to 8.00

Next compound: CCn1c(-c2cccnc2[C@H](C)OC)c2c3cc(ccc31)-c1csc(n1)C[C@H](NC(=O)[C@H](C(C)C)N(C)C(=O)N1C[C@@H]3OCCN(C)[C@@H]3C1)C(=O)N1CCC[C@H](N1)C(=O)OCC(C)(C)C2 [Compound A444]
7.00 to 8.00

Next compound: CCn1c(-c2cccnc2[C@H](C)OC)c2c3cc(ccc31)-c1csc(n1)C[C@H](NC(=O)[C@H](C(C)C)N(C)C(=O)N1CC(C3CN(C)C3)C1)C(=O)N1CCC[C@H](N1)C(=O)OCC(C)(C)C2 [Compound A608]
6.00 to 7.00

Next compound: CCn1c(-c2cccnc2[C@H](C)OC)c2c3cc(ccc31)-c1csc(n1)C[C@H](NC(=O)[C@H](C(C)C)N(C)C(=O)N1CCN(C(=O)CN(C)C)CC1)C(=O)N1CCC[C@H](N1)C(=O)OCC(C)(C)C2 [Compound A290]
> 8.00
